tested on: human CXCR4 (Homo sapiens, UniProt P61073)
Construct: expressed in transfected cells; host or cells: mouse pre-B cell line 300-19
Sequence (P61073 whole entry): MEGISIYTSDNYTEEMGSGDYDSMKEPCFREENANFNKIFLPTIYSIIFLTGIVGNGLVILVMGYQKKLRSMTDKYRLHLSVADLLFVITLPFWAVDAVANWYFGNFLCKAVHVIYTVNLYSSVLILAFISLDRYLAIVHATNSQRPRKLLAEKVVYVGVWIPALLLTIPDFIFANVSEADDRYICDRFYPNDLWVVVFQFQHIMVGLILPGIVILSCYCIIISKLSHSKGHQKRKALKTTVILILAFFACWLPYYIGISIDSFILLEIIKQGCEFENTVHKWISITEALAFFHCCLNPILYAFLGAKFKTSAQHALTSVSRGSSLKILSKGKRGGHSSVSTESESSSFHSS
protocol notes: Ca2+-assay: CXCR4-antagonizing activity (SDF-1 induced calcium mobilization)
Type: cell-based
condition notes: mouse pre-B cell line 300-19 transfected with human CXCR4; SDF-1 induced Ca2+ mobilization; read-out: IC50% [nM] ± SD, CXCR4 receptor
Bridge positions count the residues as written; N and C are the ends. Square brackets hold non-standard residues; d marks the D form. Peptide text beside a SMILES is read from it. * marks the point of attachment. Lauroyl = CCCCCCCCCCCC(=O)*; Dab = NCC[C@H](N)C(=O)O
measured quantity: IC50 (nM)
Write the answer as a number in nM, unit excluded.

For CCCCCCCCCCCC(=O)NCC[C@@H]1NC(=O)[C@H](Cc2ccc(O)cc2)NC(=O)[C@@H]2CCCN2C(=O)[C@H]2CCCN2C(=O)[C@H](CCCCN)NC(=O)[C@H](CCC(N)=O)NC(=O)[C@H](Cc2ccc(O)cc2)NC(=O)[C@@H]2CSSC[C@H](NC(=O)[C@H](C)NC1=O)C(=O)N[C@@H](CCCNC(=N)N)C(=O)N[C@@H](C)C(=O)N1CCC[C@@H]1C(=O)N[C@@H](CCN)C(=O)N[C@@H](CCCNC(=N)N)C(=O)N[C@@H](Cc1ccc(O)cc1)C(=O)N2 [Ex. 1] (cyclo(Y[Dab](Lauroyl)ACRA[dP][Dab]RYCYQK[dP]P); disulfide 4-11) , what is its reported IC50?
94
